Experiment Summary: Drug uptake in C57 mouse brain at 30 mg/kg, po after 20 hrs by LC/MS analysis
Type: ADME, organism-based
Parameters: dose 30 mg/kg, route oral
Run Parameters: read-out: Drug uptake
Each entry below carries its recorded concentration at 20 h.
Report only the number, with the unit nM understood.

Structure Notation | concentration at 20 h, nM
C[C@@]1(N)C[C@H](C(=O)N2CCC(c3ccnn3-c3ccc(F)c(Cl)c3)CC2)[C@@H](c2ccc(F)cc2F)C1 | 142

Next compound, please.
Sure, the documented concentration at 20 h for Cc1cc(C2CCN(C(=O)[C@@H]3C[C@@](C)(N)C[C@H]3c3ccc(F)cc3F)CC2)n(-c2ccc(F)c(Cl)c2)n1 is 363

----------
Experiment Summary: Percentage unbound in 10% mouse plasma
Assay type: ADME, cell-free
In this section, each of the compounds is paired with its reported fraction unbound.
Write the number on its own, no unit after it.

Study these solved cases before continuing.
Structure Notation | fraction unbound
Cc1nc(C2CCN(C(=O)[C@@H]3C[C@@](C)(N(C)C)C[C@H]3c3ccc(F)cc3F)CC2)n(-c2ccc(F)c(Cl)c2)n1 | 0.22
Cc1nc(C2CCN(C(=O)[C@@H]3C[C@@H](N(C)C)C[C@H]3c3ccc(F)cc3F)CC2)n(-c2ccc(Cl)c(C)c2)n1 | 0.32
Cc1cc(C2CCN(C(=O)[C@@H]3C[C@@](C)(N)C[C@H]3c3ccc(F)cc3F)CC2)n(-c2cc(Cl)ccc2Cl)n1 | 0.02

// fraction unbound lookup, compound = Cc1cc(C2CCN(C(=O)[C@@H]3C[C@](C)(N)C[C@H]3c3ccc(F)cc3F)CC2)n(-c2ccc(F)c(Cl)c2)n1 , result: 0.043

Field fraction unbound (entry Cc1nc(C2CCN(C(=O)[C@@H]3C[C@@](C)(N(C)C)C[C@H]3c3ccc(F)cc3F)CC2)n(-c2ccc(Cl)c(C)c2)n1 ) reads 0.22

Memo: CN(C)[C@]1(C)C[C@H](C(=O)N2CCC(c3ccnn3-c3ccc(F)c(Cl)c3)CC2)[C@@H](c2ccc(F)cc2F)C1 , reported fraction unbound: 0.091

So, Cc1nc(C2CCN(C(=O)[C@@H]3C[C@@](C)(N)C[C@H]3c3ccc(F)cc3F)CC2)n(-c2cc(Cl)ccc2Cl)n1 ? Its fraction unbound was 0.091

----------
Experiment Summary: Drug uptake in C57 mouse brain at 3 mg/kg, po after 20 hrs by LC/MS analysis
Assay type: ADME, organism-based
Set-up: dose 3 mg/kg, route oral
Run Parameters: read-out: Drug uptake
Readout Name: concentration at 20 h (nM)
Unit nM implied. Number only.

// recorded concentration at 20 h for C[C@@]1(N)C[C@H](C(=O)N2CCC(c3ccnn3-c3ccc(F)c(Cl)c3)CC2)[C@@H](c2ccc(F)cc2F)C1 : 6

----------
Reported fraction unbound values for the following compounds.
Experiment Summary: Percentage unbound in 10% human plasma
Type: ADME, cell-free
// return just the number, without any unit appended

Worked cases, answers included:
Structure Notation | Readout Name | Recorded Measurement
Cc1cc(C2CCN(C(=O)[C@@H]3C[C@](C)(N)C[C@H]3c3ccc(F)cc3F)CC2)n(-c2ccc(F)c(Cl)c2)n1 | fraction unbound | 0.069
C[C@@]1(N)C[C@H](C(=O)N2CCC(c3ccnn3-c3ccc(F)c(Cl)c3)CC2)[C@@H](c2ccc(F)cc2F)C1 | fraction unbound | 0.065
C[C@]1(N)C[C@H](C(=O)N2CCC(c3ccnn3-c3ccc(F)c(Cl)c3)CC2)[C@@H](c2ccc(F)cc2F)C1 | fraction unbound | 0.1
C[C@@]1(N)C[C@@H](C(=O)N2CCC(c3ncnn3-c3ccc(F)c(Cl)c3)CC2)[C@H](c2ccc(F)cc2F)C1 | fraction unbound | 0.21
Cc1cc(C2CCN(C(=O)[C@@H]3C[C@@](C)(N(C)C)C[C@H]3c3ccc(F)cc3F)CC2)n(-c2ccc(F)c(Cl)c2)n1 | fraction unbound | 0.064

Please fill in: fraction unbound reported for Cc1nc(C2CCN(C(=O)[C@@H]3C[C@@](C)(N(C)C)C[C@H]3c3ccc(F)cc3F)CC2)n(-c2ccc(F)c(Cl)c2)n1 = 0.32
